Reference source for all entries: paper PMC12349723

TGT: P-gp (Homo sapiens, UniProt P08183)
Construct: The MDR, P-gp overexpressing DU145-TXR cells were maintained under positive selection pressure; endogenous in cells; host or cells: DU145-TXR (paclitaxel-resistant sub-line of DU145 human prostate cancer cells)
Sequence (P08183 whole entry): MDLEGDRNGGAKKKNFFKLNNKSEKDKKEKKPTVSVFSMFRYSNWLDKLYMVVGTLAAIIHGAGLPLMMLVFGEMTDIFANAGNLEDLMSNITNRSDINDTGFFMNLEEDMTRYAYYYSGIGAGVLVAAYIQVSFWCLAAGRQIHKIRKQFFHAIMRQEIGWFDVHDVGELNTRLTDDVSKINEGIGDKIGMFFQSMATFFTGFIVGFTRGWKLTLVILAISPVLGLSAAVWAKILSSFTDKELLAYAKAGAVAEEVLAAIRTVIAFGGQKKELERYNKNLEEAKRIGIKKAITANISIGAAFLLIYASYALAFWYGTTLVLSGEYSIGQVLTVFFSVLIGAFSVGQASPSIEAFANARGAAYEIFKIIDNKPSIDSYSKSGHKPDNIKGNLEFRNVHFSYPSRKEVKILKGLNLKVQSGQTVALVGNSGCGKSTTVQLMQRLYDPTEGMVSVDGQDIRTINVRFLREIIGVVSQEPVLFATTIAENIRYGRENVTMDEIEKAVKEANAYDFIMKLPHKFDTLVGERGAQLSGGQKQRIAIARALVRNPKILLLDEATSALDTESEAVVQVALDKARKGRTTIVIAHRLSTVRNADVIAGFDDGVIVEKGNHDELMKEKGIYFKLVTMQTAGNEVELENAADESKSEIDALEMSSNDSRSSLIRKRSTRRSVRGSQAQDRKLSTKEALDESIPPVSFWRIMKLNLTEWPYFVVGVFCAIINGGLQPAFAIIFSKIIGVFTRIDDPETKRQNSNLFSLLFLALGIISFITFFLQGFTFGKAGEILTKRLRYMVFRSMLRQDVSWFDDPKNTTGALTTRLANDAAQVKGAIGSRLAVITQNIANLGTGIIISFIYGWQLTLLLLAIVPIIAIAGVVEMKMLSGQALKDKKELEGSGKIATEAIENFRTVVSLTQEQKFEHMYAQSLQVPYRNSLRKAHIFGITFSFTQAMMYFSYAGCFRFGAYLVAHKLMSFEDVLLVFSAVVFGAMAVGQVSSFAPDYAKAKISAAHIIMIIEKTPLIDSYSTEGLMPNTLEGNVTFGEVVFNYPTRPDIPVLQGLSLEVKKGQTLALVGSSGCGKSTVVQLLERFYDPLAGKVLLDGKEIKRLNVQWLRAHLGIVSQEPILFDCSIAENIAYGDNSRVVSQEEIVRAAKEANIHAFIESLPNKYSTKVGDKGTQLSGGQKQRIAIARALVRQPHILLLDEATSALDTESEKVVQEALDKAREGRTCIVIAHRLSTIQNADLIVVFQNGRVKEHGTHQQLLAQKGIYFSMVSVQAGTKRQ
ASSAY_NOTES: LC-MS/MS intracellular accumulation assay with or without tariquidar (P-gp transport substrate test) in DU145-TXR cells
Assay type: in vitro ADME
CONDITION_DETAILS: Student's T test of the mean
The following compounds are listed with their measured P (- TQR vs + TQR), Trial 2 values.
REPORTED_PROPERTY: P (- TQR vs + TQR), Trial 2

>>> readout_number("CCN1CCN(Cc2c(C(=O)N/N=C3/C(=O)N(C)c4ccccc43)nnn2-c2nonc2N)CC1")
0.2
>>> readout_number("Cc1onc(-c2ccccc2)c1-c1nnc(Cn2cnc3ccccc3c2=O)o1")
0.2
>>> readout_number("O=S(=O)(CCSc1nnc(-c2ccccc2)c2ccccc12)c1ccccc1")
0.09
>>> readout_number("COc1ccc(OC)c(NC(=O)c2nnn(-c3ccc4noc(-c5ccccc5)c4c3)c2C)c1")
0.5
>>> readout_number("Cc1ccc(-c2noc(-c3cn(Cc4ccc(NS(=O)(=O)c5ccccc5F)cc4)cn3)n2)cc1")
0.04
>>> readout_number("O=C(c1nc(-c2ccc3cc[nH]c3c2)no1)N1CCN(c2nsc3ccccc23)CC1")
0.9
>>> readout_number("O=C(c1cc2ccccc2[nH]1)N1CCN(S(=O)(=O)c2cccc3nonc23)CC1")
0.2
>>> readout_number("O=C(NCc1cccc(F)c1)c1nnn2c1Sc1c(C(=O)NCc3cccc(F)c3)nnn1CC2")
0.0003
>>> readout_number("O=C(c1nc(-c2ccccn2)no1)N1CCN(c2nsc3ccccc23)CC1")
0.0008
>>> readout_number("COc1cccc(N2CCN(c3ccc4nnc(CCC(=O)Nc5ccc(F)c(F)c5)n4n3)CC2)c1")
0.6
